# TARGET ENTITY: hu-M-IL1RAP-D1 construct, positions S21-Q133 (human)
# Sequence (chain, as listed by the source limits assumed): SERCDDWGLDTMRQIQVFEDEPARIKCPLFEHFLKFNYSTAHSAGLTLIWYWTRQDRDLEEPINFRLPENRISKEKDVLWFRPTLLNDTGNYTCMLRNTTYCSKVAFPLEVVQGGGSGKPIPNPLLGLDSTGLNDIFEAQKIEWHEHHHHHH
# ASSAY METHOD TEXT: ELISA, mAb at 10 nM

| BINDER | A450, A450 |
| --- | --- |
| 10A11 (purified mAb from hybridoma 10A11) (antibody, V domains shown) VH: EVQLQQSGAELVKPGASVRLSCTSSGFNIKDYFMHWVKQRTEQGLEWVGRIDPEDGETQYAPNFQDKATITVDTSSNTVYLQLSSLTSEDTAVYYCFRPLYYGNSPWFAYWGQGTLVTVSP VL: DIQMTQTTSSLSASLGDRVTISCRASQDISNYLNWYQQKPDGTVKLLIYYTSTLHSGVPSRFSGSGSGTDYSLTISNLEPEDIATYYCHQYSKFPPTFGSGTKLEIK | 0.046 |
